Target: VEGF (vascular endothelial growth factor) (UniProt P15692-4 P15692-4:27-191)
Sequence (P15692 other isoform, or with tags, fused parts or gaps): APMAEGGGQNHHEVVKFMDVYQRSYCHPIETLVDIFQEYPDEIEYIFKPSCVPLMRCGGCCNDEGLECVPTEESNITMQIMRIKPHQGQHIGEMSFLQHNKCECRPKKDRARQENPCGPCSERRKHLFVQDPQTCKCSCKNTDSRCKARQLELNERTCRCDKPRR
Assay: competition; competition ELISA apparent ED50; reduction attributed to geometry of liposome display
Conditions: chain copies: 2
pEC50: −log10 of the molar value.
TEST READOUT: pEC50

Q. Would you mind telling me what pEC50 value was observed for TTTTACCCUGAUGGUAGACGCCGGGGUGTTTTT (mixed, 5'-dialkylglycerol (DAG), embedded in DSPC:cholesterol liposome; PS at 1-4 and 29-33; 2'-OMe at 5,13,16,17,20,23-26,28; 2'-NH2 at 6-9,12,15,19,21,22,27) [NX278-Liposome] ?
A. ~7.00
